Listed here are molecules together with their documented IC50.
# ASSAY_SYSTEM: Falcipain 2 (Plasmodium falciparum)
# Sequence (Q9N6S8 whole entry): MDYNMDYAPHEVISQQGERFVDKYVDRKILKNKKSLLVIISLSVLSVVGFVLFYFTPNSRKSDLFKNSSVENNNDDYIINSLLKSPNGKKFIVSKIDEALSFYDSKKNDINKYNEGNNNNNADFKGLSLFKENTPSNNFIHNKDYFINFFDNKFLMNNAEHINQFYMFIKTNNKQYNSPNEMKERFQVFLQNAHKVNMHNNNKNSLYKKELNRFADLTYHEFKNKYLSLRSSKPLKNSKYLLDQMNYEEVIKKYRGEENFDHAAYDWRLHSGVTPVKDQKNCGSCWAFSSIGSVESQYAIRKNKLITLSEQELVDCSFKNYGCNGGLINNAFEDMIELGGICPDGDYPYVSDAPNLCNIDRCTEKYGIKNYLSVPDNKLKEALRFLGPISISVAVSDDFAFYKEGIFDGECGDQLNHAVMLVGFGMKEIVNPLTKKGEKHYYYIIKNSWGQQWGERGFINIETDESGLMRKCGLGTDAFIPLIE
PROPERTY_NAME: IC50

INSERT INTO results (structure_string, property_name, observed_value) VALUES
  ('CCOC(=O)/C=C/[C@@H](O)[C@H](CCc1ccccc1)NC(=O)[C@H](Cc1ccccc1)NC(=O)OCc1ccccc1', 'IC50', '34.4 µM'),
  ('CCOC(=O)/C=C/C(=O)[C@H](C)NC(=O)[C@H](Cc1ccccc1)NC(=O)OCc1ccccc1', 'IC50', '0.19 µM'),
  ('CCOC(=O)/C=C/C(=O)[C@H](CCc1ccccc1)NC(=O)[C@H](Cc1ccccc1)NC(=O)OCc1ccccc1', 'IC50', '0.06 µM'),
  ('O=C(O)/C=C/[C@@H](O)[C@H](CCc1ccccc1)NC(=O)[C@H](Cc1ccccc1)NC(=O)OCc1ccccc1', 'IC50', '75 µM'),
  ('CCOC(=O)/C=C/[C@@H](O)[C@H](C)NC(=O)[C@H](Cc1ccccc1)NC(=O)OCc1ccccc1', 'IC50', '26.8 µM'),
  ('CCOC(=O)/C=C/C(=O)[C@H](CCc1ccccc1)NC(=O)[C@H](CC(C)C)NC(=O)OCc1ccccc1', 'IC50', '0.58 µM');

====

# ASSAY_SYSTEM: Procathepsin L (Homo sapiens)
# Sequence (P07711 114-333 limits assumed): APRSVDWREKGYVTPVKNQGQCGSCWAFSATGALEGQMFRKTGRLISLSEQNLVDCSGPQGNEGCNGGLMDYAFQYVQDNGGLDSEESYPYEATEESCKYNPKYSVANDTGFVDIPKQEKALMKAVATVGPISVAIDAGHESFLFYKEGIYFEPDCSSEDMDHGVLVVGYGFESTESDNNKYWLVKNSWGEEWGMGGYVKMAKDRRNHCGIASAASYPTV
# ASSAY_SUMMARY: Inhibition of human cathepsin L at 20 uM using Cbz-Phe-Arg-AMC as substrate relative to control
Listed here are compounds together with their documented inhibition.
PROPERTY_NAME: inhibition (%)

INSERT INTO assay_data (structure_string, property_name, observed_value) VALUES
  ('CCOC(=O)/C=C/C(=O)[C@H](CC(C)C)NC(=O)[C@H](Cc1ccccc1)NC(=O)OCc1ccccc1', 'inhibition', 100),
  ('CCOC(=O)/C=C/C=C/C(=O)[C@H](CCc1ccccc1)NC(=O)[C@H](Cc1ccccc1)NC(=O)N1CCOCC1', 'inhibition', 99),
  ('O=C(O)/C=C/[C@@H](O)[C@H](CCc1ccccc1)NC(=O)[C@H](Cc1ccccc1)NC(=O)OCc1ccccc1', 'inhibition', 47),
  ('CCOC(=O)/C=C/[C@@H](O)[C@H](C)NC(=O)[C@H](Cc1ccccc1)NC(=O)OCc1ccccc1', 'inhibition', 80),
  ('CCOC(=O)/C=C/C(=O)[C@H](CCc1ccccc1)NC(=O)[C@H](CC(C)C)NC(=O)N1CCOCC1', 'inhibition', 100),
  ('CCOC(=O)/C=C/[C@@H](O)[C@H](CCc1ccccc1)NC(=O)[C@H](Cc1ccccc1)NC(=O)N1CCOCC1', 'inhibition', 98),
  ('CCOC(=O)/C=C/C(=O)[C@@H](CCc1ccccc1)NC(=O)[C@H](Cc1ccccc1)NC(=O)N1CCOCC1', 'inhibition', 100),
  ('CCOC(=O)/C=C/[C@H](O)[C@H](CCc1ccccc1)C(=O)N[C@@H](CC(C)C)C(=O)OCc1ccccc1', 'inhibition', 0),
  ('CCOC(=O)/C=C/C(=O)[C@H](CCc1ccccc1)NC(=O)[C@H](Cc1ccccc1)NC(=O)OCc1ccccc1', 'inhibition', 100),
  ('CCOC(=O)/C=C/C(=O)[C@H](C)NC(=O)[C@H](CC(C)C)NC(=O)OCc1ccccc1', 'inhibition', 99),
  ('CCOC(=O)/C=C/C(=O)[C@H](CC(C)C)NC(=O)[C@H](CC(C)C)NC(=O)N1CCOCC1', 'inhibition', 100),
  ('CCOC(=O)/C=C/C(=O)[C@H](C)NC(=O)[C@H](Cc1ccccc1)NC(=O)OCc1ccccc1', 'inhibition', 100),
  ('CCOC(=O)/C=C/[C@@H](O)[C@H](CCc1ccccc1)NC(=O)[C@H](CC(C)C)NC(=O)OCc1ccccc1', 'inhibition', 14),
  ('CCOC(=O)/C=C/C(=O)[C@@H](CC(C)C)NC(=O)[C@H](Cc1ccccc1)NC(=O)OCc1ccccc1', 'inhibition', 100),
  ('CCOC(=O)/C=C/C(=O)[C@H](CCc1ccccc1)NC(=O)[C@H](Cc1ccccc1)NC(=O)N1CCOCC1', 'inhibition', 100),
  ('O=C(/C=C/[C@@H](O)[C@H](CCc1ccccc1)NC(=O)[C@H](Cc1ccccc1)NC(=O)OCc1ccccc1)NCc1ccccc1', 'inhibition', 17),
  ('CCOC(=O)/C=C/[C@H](O)[C@H](CCc1ccccc1)C(=O)N[C@@H](Cc1ccccc1)C(=O)OC', 'inhibition', 0),
  ('CCOC(=O)/C=C/[C@H](O)[C@H](CCc1ccccc1)C(=O)N[C@@H](Cc1ccccc1)C(=O)OCc1ccccc1', 'inhibition', 0);

Sourced from ChEMBL document CHEMBL4229471
